# System: Hs-578T
# method: NCI tumour cell line growth inhibition, 48 h
Active and inactive are the calls of the source. Cut-off read from the data, not from the text of the source: active = GI50 up to about 1.1 µM and inactive = higher.
recorded_metric: GI50

# annotated cases, reported GI50 shown
compound | system | GI50
Cn1/c(=N\N=C(\CNCCO)[C@@H](O)[C@@H]2OC(c3ccccc3)OC[C@H]2O)sc2ccccc21 (stereo partly specified) | Hs-578T | 14.8 µM (inactive)
CCOC(=O)c1cc(C#N)[nH]c1-c1ccsc1 | Hs-578T | 25.7 µM (inactive)

Would you mind listing GI50 for each of the following compounds?
1. O=S1(=O)c2ccccc2NC(=S)CC1c1ccccc1 (stereo unspecified)
2. O=c1oc2ccc([N+](=O)[O-])cc2cc1Br
3. C=CCC1(O)c2cccc(O)c2C(=O)c2c(O)cccc21
4. O=C(O)CN(CC(=O)O)Cc1cc(C#Cc2ccc(C#Cc3ccccc3)cc2)cc(CN(CC(=O)O)CC(=O)O)n1

OUTPUT:
["> 100 µM (inactive)", "> 100 µM (inactive)", "24.4 µM (inactive)", "46.8 µM (inactive)"]

Would you mind listing GI50 for each of the following compounds?
1. Cn1c2c(c3ccccc31)CC1c3c(c4ccccc4n3C)CC21 (stereo unspecified)
2. NC(Cc1c[nH]c2ccc([N+](=O)[O-])cc12)C(=O)O (stereo unspecified)
3. O=C1CSC(/C=C/c2ccccc2)N1c1ccc(-n2c(-c3ccccc3)nc3ccccc3c2=O)cc1 (stereo unspecified)
4. CCCCNC(=S)N/N=C/c1cccc(C)n1
5. O=C1NC(=O)C23C(=O)NC(=O)C12C1C=CC3CC1 (stereo unspecified)

OUTPUT:
1: > 100 µM (inactive); 2: 24.7 µM (inactive); 3: > 100 µM (inactive); 4: > 100 µM (inactive); 5: > 10 µM (inactive)

###

# Tested on: HCT-15
recorded_metric: GI50

molecule | val
O=P(Nc1ccc(Cl)cc1)(Oc1ccccc1)N(CCCl)CCCl (stereo unspecified) | > 100 µM
CCOC(=O)c1nc2ccccc2nc1Nc1ccc(Cl)c(Cl)c1 | > 100 µM
COC(C[C@H]1CCCC[C@]1(O)/C(=C\CO[Si](C(C)C)(C(C)C)C(C)C)Sc1ccccc1)OC | 21.8 µM
Cn1nc(-c2ccccc2)c2c(/C=C/c3ccccc3)onc2c1=O | > 100 µM
Cc1ccc(NC(=O)C(=O)C(C#N)c2nc(-c3ccc(-c4ccccc4)cc3)cs2)c(C)c1 (stereo unspecified) | > 100 µM

Measured on HCT-15, C/C=C/C/C=C/CCC(=O)C1OC1C(N)=O (stereo unspecified) has a documented GI50 of 12.6 µM

###

# Test system: OVCAR-3
# method: NCI tumour cell line growth inhibition, 48 h
The source made the active and inactive calls. Rule as the data show it: active = GI50 up to about 1.1 µM and inactive = higher.
recorded_metric: GI50

# annotated cases, reported GI50 shown
compound | GI50
O=C1c2cccc3cc([N+](=O)[O-])cc(c23)C(=O)N1O | 28.9 µM (inactive)
Cn1c2ccccc2c2c3c(=O)[nH][nH]c(=O)c3c3c4ccccc4n(C)c3c21 | > 100 µM (inactive)
COc1ccc(N/N=C(\CCN(C)C)c2ccccc2)cc1 | 2.81 µM (inactive)
O=S1(=O)c2ccccc2NC(=S)CC1c1ccccc1 (stereo unspecified) | > 100 µM (inactive)
Cn1c(=O)nc2n(-c3cc(C(F)(F)F)cc(C(F)(F)F)c3)c3ccccc3nc-2c1=O | 64.7 µM (inactive)

Consider the additional compound presented here.
Reported GI50 of "C1CSCC2(COC2)CSCCSCC2(COC2)CS1" : > 100 µM (inactive)

###

# Test system: UACC-257
# method: NCI tumour cell line growth inhibition, 48 h
Active and inactive are the calls of the source. Rule as the data show it: active = GI50 up to about 1.1 µM and inactive = higher.
Can you answer with just one of these options? 1.0 for active, 0.0 for inactive

compound | qualitative_label
CCOC(=O)N[C@@H]1C2CC(=O)C(O2)[C@@H]1OC (stereo partly specified) | 0.0
CC(=O)OC1=C2CC[C@@H]3C(CC[C@@]4(C)C3CC[C@@H]4OC(C)=O)[C@@]2(C)CC(C#N)C1=O (stereo partly specified) | 0.0

INPUT: Status in this test for "CN(C)C(=S)/N=c1\ssc(=S)n1Cc1cccs1" ?
OUTPUT: 0.0

INPUT: Status in this test for "O=C1C(O)=C(Cl)C(=O)c2c(O)ccc(O)c21" ?
OUTPUT: 0.0

INPUT: Status in this test for "COCN(C)c1nc(N(C)C)nc(N(C)C)n1" ?
OUTPUT: 0.0

INPUT: Status in this test for c1ccc2c(c1)C1CCCCCC21N1CCOCC1 (stereo unspecified) ?
OUTPUT: 0.0

INPUT: Status in this test for Cc1cnc2c(c1)C(=O)C1=C(C2=O)C2OC(=O)CC2OC1(C)C (stereo unspecified) ?
OUTPUT: 1.0

INPUT: Status in this test for COC(=O)C1=C(c2ccc3c(c2)OCO3)OC(c2ccc3c(c2)OCO3)C1 (stereo unspecified) ?
OUTPUT: 0.0

INPUT: Status in this test for "CCOC(=O)C(=O)Nc1ccc(Cl)c(C(F)(F)F)c1" ?
OUTPUT: 0.0

INPUT: Status in this test for "CC(=O)/C=c1\[nH]/c(=C\C=C\c2ccccc2)c(=O)n1/C=C1\C(=O)Oc2ccccc2C1=O" ?
OUTPUT: 0.0

INPUT: Status in this test for COC(=O)C(=O)C1CCCCC(C2=NC3NN=C(N)N3C2=O)C1=O (stereo unspecified) ?
OUTPUT: 0.0

###

# Tested on: MDA-N
# method: NCI tumour cell line growth inhibition, 48 h
Calls of active or inactive are those of the source. No stated cut-off is given here; in the data, active = GI50 up to about 1.1 µM and inactive = higher.
Can you answer with just one of these options? active, inactive

Example entries and their recorded answers appear below.
compound | qualitative_label
Cc1cnc2c(c1)C(=O)C1=C(C2=O)C2OC(=O)CC2OC1(C)C (stereo not given) | active
O=c1c2ccccc2sc2cccc(NCCCN3CCN(CCCNc4cccc5sc6ccccc6c(=O)c45)CC3)c12 | inactive
O=C(Nc1ccc2ncccc2c1)c1cc2c(cc1Cl)Sc1nccn1S2(=O)=O | inactive
CC1(C)COC(c2cccc(C(O)c3ccc(Cl)cc3)c2)=N1 (stereo not given) | inactive
C=CCC1(O)c2cccc(O)c2C(=O)c2c(O)cccc21 | inactive

INPUT: Status in this test for "O=C(Nc1ccccc1)OCCN=c1c2ccccc2ccc2ccccc12" ?
OUTPUT: inactive

###

# Test system: MOLT-4
# method: NCI tumour cell line growth inhibition, 48 h
Activity calls are given as the source filed them. No stated cut-off is given here; in the data, active = GI50 up to about 1.1 µM and inactive = higher.
recorded_metric: GI50

# annotated cases, reported GI50 shown
compound | GI50
N#CC1=C(c2ccccc2)C(O)(c2ccccc2)NC1=O (stereo unspecified) | > 100 µM (inactive)
Cc1cnc2ccc(C)c([N+](=O)[O-])c2c1NCCCN(C)C | > 100 µM (inactive)
CCc1nnc(S)n1/N=C\c1ccc(-c2ccccc2[N+](=O)[O-])o1 | 19.4 µM (inactive)
O=C1NC(=O)C23C(=O)NC(=O)C12C1C=CC3CC1 (stereo unspecified) | > 10 µM (inactive)

Would you mind listing GI50 for each of the following compounds?
1. NCCNCc1c2ccccc2c(CNCCN)c2ccccc12
2. Nc1ccc(C(=O)O)cc1 [AMINOBENZOIC ACID]

OUTPUT:
1. 3.78 µM (inactive)
2. > 100 µM (inactive)

###

# Tested on: UACC-62
# method: NCI tumour cell line growth inhibition, 48 h
Active and inactive are the calls of the source. No stated cut-off is given here; in the data, active = GI50 up to about 1.1 µM and inactive = higher.
Can you answer with just one of these options? label 1 for active, label 0 for inactive

Example entries and their recorded answers appear below.
compound | qualitative_label
Cc1cc(C)nc(NC(P(=O)(O)O)P(=O)(O)O)n1 | label 0
CCOC(=O)C1C(c2ccc3c(c2)OCO3)c2c(n[nH]c2O)CC1(C)O (stereo not given) | label 0
CC(=O)O[C@H]1CC[C@@]2(C)C(=CC[C@@H]3[C@@H]2CC[C@]2(C)c4nc(Cl)ccc4C[C@@H]32)C1 | label 0
CC1(C)CC2=C(Sc3ccccc3N2)C(=O)C1C(=O)C(=O)Nc1cc(Cl)ccc1Cl (stereo not given) | label 0
CCC[C@H](C)[C@H]1NC(=O)[C@@H](NC(=O)[C@@H](CC(C)C)N(C)C(=O)C2CCCN2C(=O)[C@H](C)O)[C@@H](C)OC(=O)[C@H](CC(C)C)N(C)C(=O)[C@@H]2CCCN2C(=O)[C@H](CC(C)C)NC(=O)[C@@H](C)C(=O)[C@H](C(C)C)OC(=O)C[C@@H]1O (stereo not given in full) | label 1

INPUT: Status in this test for OC1CC2CCCN(CCc3c1[nH]c1ccccc31)C2 (stereo not given) ?
OUTPUT: label 0

INPUT: Status in this test for CCOC(=O)N[C@@H]1C2CC(=O)C(O2)[C@@H]1OC (stereo not given in full) ?
OUTPUT: label 0

INPUT: Status in this test for O=C1CSC(/C=C/c2ccccc2)N1c1ccc(-n2c(-c3ccccc3)nc3ccccc3c2=O)cc1 (stereo not given) ?
OUTPUT: label 0

INPUT: Status in this test for "COc1cnc2cc(C(=O)O)c3ccccc3c2c1" ?
OUTPUT: label 0

INPUT: Status in this test for "CC1(C)C(=O)/C(=C/c2ccccc2)C(C)(C)C1(C)C" ?
OUTPUT: label 0

All figures here come from ChEMBL document CHEMBL1201862.
